// provenance: patent US20230157952A1

# test method notes: Effect of concentration on the stability of the solution (purity over time)
# reported conditions: 30 wt %; in water at 25° C.
quantity: Purity at Day 3 (%)
Your answer should be a plain number; it is taken to be in %.

1. CCN(CC)CCOC(=O)C(C)c1ccc2oc(-c3ccc(Cl)cc3)nc2c1.Cl (stereo not shown) : 98.5
2. CCN(CC)CCOC(=O)CCc1ccc2cc(OC)ccc2c1.Cl : 98.4
3. CCN(CC)CCOC(=O)Cc1c(C)n(C(=O)c2ccc(Cl)cc2)c2ccc(OC)cc12.Cl : 98.5
4. CCN(CC)CCOC(=O)Cc1ccc(C(=O)c2ccc(C)cc2)n1C.Cl : 97.7

Q: Can you look up the measured Purity at Day 3 of CCN(CC)CCOC(=O)CC1=C(C)C(=Cc2ccc([S+](C)[O-])cc2)c2ccc(F)cc21.Cl (stereo not shown) for me?
A: 97.5

Q: Purity at Day 3 lookup needed for CCN(CC)CCOC(=O)Cc1sc(-c2ccccc2)nc1-c1ccc(Cl)cc1.Cl , thanks.
A: 98.7

Q: Which Purity at Day 3 value is on record for CCN(CC)CCOC(=O)CCc1nc(-c2ccccc2)c(-c2ccccc2)o1.Cl ?
A: 98.7
